Overview of recorded pKi for various molecules
targetSystem: purified ITK (Invitrogen PV3875) (Homo sapiens, UniProt Q08881)
Construct: purchased Invitrogen PV3875
Sequence (Q08881 1-620): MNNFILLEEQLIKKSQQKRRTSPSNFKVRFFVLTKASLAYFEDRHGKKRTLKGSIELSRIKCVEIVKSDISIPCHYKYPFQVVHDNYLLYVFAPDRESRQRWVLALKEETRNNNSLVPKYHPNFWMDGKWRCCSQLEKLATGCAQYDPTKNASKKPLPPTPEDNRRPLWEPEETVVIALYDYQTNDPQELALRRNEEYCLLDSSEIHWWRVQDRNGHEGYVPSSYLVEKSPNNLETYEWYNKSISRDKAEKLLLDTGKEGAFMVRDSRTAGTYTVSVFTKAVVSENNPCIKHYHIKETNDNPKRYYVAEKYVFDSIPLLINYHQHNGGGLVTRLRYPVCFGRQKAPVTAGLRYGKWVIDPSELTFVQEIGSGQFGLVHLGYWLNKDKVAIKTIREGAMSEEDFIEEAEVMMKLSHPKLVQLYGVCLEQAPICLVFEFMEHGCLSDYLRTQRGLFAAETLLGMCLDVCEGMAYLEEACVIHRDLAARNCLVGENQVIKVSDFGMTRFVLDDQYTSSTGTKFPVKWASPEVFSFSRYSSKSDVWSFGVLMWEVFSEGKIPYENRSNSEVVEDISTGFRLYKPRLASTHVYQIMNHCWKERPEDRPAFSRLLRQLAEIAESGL
procedureDetails: ITK peptide phosphorylation assay (Caliper LabChip or LCMS)
Type: biochemical
conditionParameters: Table 2, Examples 1-140, class symbols
Text: The ability of purified ITK (Invitrogen PV3875) to catalyze peptide phosphorylation is monitored using a Caliper LabChip 3000 microfluidic unit (Caliper assay) or by liquid chromatography-mass spectrometry (LCMS) using a Waters Acquity system (LCMS assay). […] Non-phosphorylated substrate and phosphorylated product peptides are separated and quantified using a Caliper LabChip 3000 instrument. […]
pKi: −log10 of the molar value.

molecule: NC(=O)c1cccc(Cn2cc(NC(=O)c3n[nH]c4cc(-c5cccnc5)ccc34)cn2)c1
targetSystem: purified ITK (Invitrogen PV3875) (Homo sapiens, UniProt Q08881)
pKi: 7.00 to 9.00
//
molecule: N#Cc1cncc(-c2ccc3c(C(=O)Nc4cnn(Cc5cscn5)c4)n[nH]c3c2)c1
targetSystem: purified ITK (Invitrogen PV3875) (Homo sapiens, UniProt Q08881)
pKi: 7.00 to 9.00
//
molecule: O=C(Nc1cnn(Cc2ccccc2F)c1)c1n[nH]c2ccccc12
targetSystem: purified ITK (Invitrogen PV3875) (Homo sapiens, UniProt Q08881)
pKi: 7.00 to 9.00
//
molecule: O=C(Nc1cnn(Cc2cccc(C(=O)N3CCC(O)CC3)c2)c1)c1n[nH]c2cc(-c3cn[nH]c3)ccc12
targetSystem: purified ITK (Invitrogen PV3875) (Homo sapiens, UniProt Q08881)
pKi: 7.00 to 9.00
//
molecule: N#Cc1cccc(Cn2cc(NC(=O)c3n[nH]c4cc(N5CCC(O)C5)ccc34)cn2)c1 (stereo not shown)
targetSystem: purified ITK (Invitrogen PV3875) (Homo sapiens, UniProt Q08881)
pKi: 7.00 to 9.00
//
molecule: CC[C@@H](c1ccccc1)n1cc(NC(=O)c2n[nH]c3cc(-c4cccnc4)ccc23)cn1
targetSystem: purified ITK (Invitrogen PV3875) (Homo sapiens, UniProt Q08881)
pKi: 7.00 to 9.00
//
molecule: O=C(Nc1cnn(Cc2c(Cl)cccc2Cl)c1)c1n[nH]c2ccccc12
targetSystem: purified ITK (Invitrogen PV3875) (Homo sapiens, UniProt Q08881)
pKi: < 7.00
//
molecule: O=C(Nc1cnn(Cc2cc(Cl)cc(Cl)c2)c1)c1n[nH]c2ccccc12
targetSystem: purified ITK (Invitrogen PV3875) (Homo sapiens, UniProt Q08881)
pKi: 7.00 to 9.00
//
molecule: O=C(Nc1cnn(Cc2cn3ccccc3n2)c1)c1n[nH]c2cc(-c3cn[nH]c3)ccc12
targetSystem: purified ITK (Invitrogen PV3875) (Homo sapiens, UniProt Q08881)
pKi: 7.00 to 9.00
//
molecule: O=C(Nc1cnn(Cc2cccc(CN3CCC3)c2)c1)c1n[nH]c2ccccc12
targetSystem: purified ITK (Invitrogen PV3875) (Homo sapiens, UniProt Q08881)
pKi: 7.00 to 9.00
//
molecule: CCCNCc1cccc(Cn2cc(NC(=O)c3n[nH]c4ccccc34)cn2)c1
targetSystem: purified ITK (Invitrogen PV3875) (Homo sapiens, UniProt Q08881)
pKi: 7.00 to 9.00
//
molecule: CCNCc1ccc(Cn2cc(NC(=O)c3n[nH]c4ccccc34)cn2)cc1
targetSystem: purified ITK (Invitrogen PV3875) (Homo sapiens, UniProt Q08881)
pKi: 7.00 to 9.00
//
molecule: O=C(Nc1cnn(Cc2ccc(OC(F)(F)F)cc2)c1)c1n[nH]c2ccccc12
targetSystem: purified ITK (Invitrogen PV3875) (Homo sapiens, UniProt Q08881)
pKi: < 7.00
//
molecule: Cc1ccc(Cn2cc(NC(=O)c3n[nH]c4ccccc34)cn2)cc1
targetSystem: purified ITK (Invitrogen PV3875) (Homo sapiens, UniProt Q08881)
pKi: 7.00 to 9.00
//
molecule: N#Cc1cccc(Cn2cc(NC(=O)c3n[nH]c4ccc(-c5cc[nH]n5)cc34)cn2)c1
targetSystem: purified ITK (Invitrogen PV3875) (Homo sapiens, UniProt Q08881)
pKi: 7.00 to 9.00
//
molecule: Cc1ncccc1-c1ccc2c(C(=O)Nc3cnn(Cc4cccc(C#N)c4)c3)n[nH]c2c1
targetSystem: purified ITK (Invitrogen PV3875) (Homo sapiens, UniProt Q08881)
pKi: < 7.00
//
molecule: O=C(Nc1cnn(Cc2noc3ccccc23)c1)c1n[nH]c2cc(-c3cn[nH]c3)ccc12
targetSystem: purified ITK (Invitrogen PV3875) (Homo sapiens, UniProt Q08881)
pKi: 7.00 to 9.00
//
molecule: O=C(Nc1cnn(Cc2cccc(C(F)(F)F)c2)c1)c1n[nH]c2ccccc12
targetSystem: purified ITK (Invitrogen PV3875) (Homo sapiens, UniProt Q08881)
pKi: 7.00 to 9.00
//
molecule: COc1ccccc1Cn1cc(NC(=O)c2n[nH]c3ccccc23)cn1
targetSystem: purified ITK (Invitrogen PV3875) (Homo sapiens, UniProt Q08881)
pKi: < 7.00
//
molecule: Cc1ccccc1Cn1cc(NC(=O)c2n[nH]c3ccccc23)cn1
targetSystem: purified ITK (Invitrogen PV3875) (Homo sapiens, UniProt Q08881)
pKi: 7.00 to 9.00
//
molecule: N#Cc1cccc(Cn2cc(NC(=O)c3n[nH]c4cc(F)ccc34)cn2)c1
targetSystem: purified ITK (Invitrogen PV3875) (Homo sapiens, UniProt Q08881)
pKi: 7.00 to 9.00
//
molecule: COc1ccc2c(C(=O)Nc3cnn(Cc4cccc(C#N)c4)c3)n[nH]c2c1
targetSystem: purified ITK (Invitrogen PV3875) (Homo sapiens, UniProt Q08881)
pKi: 7.00 to 9.00
//
molecule: O=C(Nc1cnn(Cc2cccc(CNCC(F)F)c2)c1)c1n[nH]c2ccccc12
targetSystem: purified ITK (Invitrogen PV3875) (Homo sapiens, UniProt Q08881)
pKi: 7.00 to 9.00
//
molecule: CCNCc1cccc(Cn2cc(NC(=O)c3n[nH]c4ccccc34)cn2)c1
targetSystem: purified ITK (Invitrogen PV3875) (Homo sapiens, UniProt Q08881)
pKi: 7.00 to 9.00
//
molecule: O=C(Nc1cnn(Cc2cccc(N3CCOCC3)c2)c1)c1n[nH]c2cc(-c3cn[nH]c3)ccc12
targetSystem: purified ITK (Invitrogen PV3875) (Homo sapiens, UniProt Q08881)
pKi: 9.00 to 11.00
//
molecule: O=C(Nc1cnn(Cc2cccnc2)c1)c1n[nH]c2ccccc12
targetSystem: purified ITK (Invitrogen PV3875) (Homo sapiens, UniProt Q08881)
pKi: 7.00 to 9.00
//
molecule: COc1cccc2c(C(=O)Nc3cnn(Cc4cccc(C#N)c4)c3)n[nH]c12
targetSystem: purified ITK (Invitrogen PV3875) (Homo sapiens, UniProt Q08881)
pKi: < 7.00
//
molecule: O=C(O)c1ccc(Cn2cc(NC(=O)c3n[nH]c4cc(-c5cn[nH]c5)ccc34)cn2)o1
targetSystem: purified ITK (Invitrogen PV3875) (Homo sapiens, UniProt Q08881)
pKi: 7.00 to 9.00
//
molecule: O=C(Nc1cnn(Cc2ccc(Cl)cc2)c1)c1n[nH]c2ccccc12
targetSystem: purified ITK (Invitrogen PV3875) (Homo sapiens, UniProt Q08881)
pKi: 7.00 to 9.00
//
molecule: CC[C@@H](c1ccccc1)n1cc(NC(=O)c2n[nH]c3cc(-c4ccc(N)nc4)ccc23)cn1
targetSystem: purified ITK (Invitrogen PV3875) (Homo sapiens, UniProt Q08881)
pKi: 7.00 to 9.00
//
molecule: N#Cc1cccc(Cn2cc(NC(=O)c3n[nH]c4ccc(Cl)cc34)cn2)c1
targetSystem: purified ITK (Invitrogen PV3875) (Homo sapiens, UniProt Q08881)
pKi: 7.00 to 9.00
//
molecule: CC[C@@H](c1ccccc1)n1cc(NC(=O)c2n[nH]c3cc(-c4cc[nH]n4)ccc23)cn1
targetSystem: purified ITK (Invitrogen PV3875) (Homo sapiens, UniProt Q08881)
pKi: 7.00 to 9.00
//
molecule: O=C(Nc1cnn(Cc2csc(-c3cccs3)n2)c1)c1n[nH]c2cc(-c3cn[nH]c3)ccc12
targetSystem: purified ITK (Invitrogen PV3875) (Homo sapiens, UniProt Q08881)
pKi: 7.00 to 9.00
//
molecule: Nc1cc(Cn2cc(NC(=O)c3n[nH]c4cc(-c5cccnc5)ccc34)cn2)ccn1
targetSystem: purified ITK (Invitrogen PV3875) (Homo sapiens, UniProt Q08881)
pKi: 7.00 to 9.00
